Reference source: PubChem BioAssay (Tox21)

# assay_details: qHTS assay to test for compound auto fluorescence at 535 nm (green) in HepG2 cells (AID 720675)
# test_settings: green autofluorescence 485/535 nm, 1 h; series mostly up to 91.3 µM
The source made the active and inactive calls. Calls come from the whole dose curve; as a rule, active = well fitted curve in the direction sought with a large enough effect in the repeat runs; inconclusive = weak or mixed curves; inactive = flat fitted curve, though single readings scatter.
Returns: one label drawn from True = active, False = inactive

Recorded results for 3 molecules are shown here.
Nc1ncn([C@@H]2O[C@H](CO)[C@@H](O)[C@H]2O)c(=O)n1 :: False
Cc1ccc(C)c(O)c1C :: False
COc1c(Cl)c(Cl)c(Cl)c(Cl)c1Cl :: False

Hello, I am checking results. What call was entered for c1ccc(Nc2ccccc2)cc1 ?
False

Hello, I am checking results. What call was entered for CC(C)Oc1ccc2c(=O)c(-c3ccccc3)coc2c1 ?
False

Hello, I am checking results. What call was entered for OC1CCCCCCCCCCC1 ?
False

Hello, I am checking results. What call was entered for CC(C)CC(C)(O)C#CC(C)(O)CC(C)C (stereo not drawn) ?
False

Hello, I am checking results. What call was entered for Cc1cc2nc3c(=O)[nH]c(=O)nc-3n(C[C@H](O)[C@H](O)[C@H](O)CO)c2cc1C ?
True

Hello, I am checking results. What call was entered for Cc1ncc[nH]1 ?
False

Hello, I am checking results. What call was entered for COc1ccc(OC)c(C(O)CNC(=O)CN)c1 (stereo not drawn) ?
False

Hello, I am checking results. What call was entered for CN1C(C(=O)Nc2ccccn2)=C(O)c2ccccc2S1(=O)=O ?
False

Hello, I am checking results. What call was entered for C#C[C@]1(O)CC[C@H]2[C@@H]3CCc4cc(OC)ccc4[C@H]3CC[C@@]21C ?
False

Hello, I am checking results. What call was entered for c1ccc2c(c1)Oc1ccccc1S2 ?
False

Hello, I am checking results. What call was entered for C[C@]12CC[C@H]3[C@@H](CCC4=CC(=O)CC[C@@]43C)[C@@H]1CC[C@@H]2C(=O)CO ?
False

Hello, I am checking results. What call was entered for CC(=O)C1(C)CC2=C(CCCC2(C)C)CC1C (stereo not drawn) ?
False

Hello, I am checking results. What call was entered for CCC(C)CO (stereo not drawn) ?
False

Hello, I am checking results. What call was entered for COc1cc([C@@H]2c3cc4c(cc3[C@H](O)[C@H]3COC(=O)[C@H]23)OCO4)cc(OC)c1OC ?
False

Hello, I am checking results. What call was entered for Cc1c(C(N)=O)cc([N+](=O)[O-])cc1[N+](=O)[O-] ?
False

Hello, I am checking results. What call was entered for O=[N+]([O-])c1ccc2c(c1)Cc1ccccc1-2 ?
False

Hello, I am checking results. What call was entered for C#C[C@]1(O)CC[C@H]2[C@@H]3CCC4=Cc5oncc5C[C@]4(C)[C@H]3CC[C@@]21C ?
False

====

# assay_details: qHTS assay for small molecule agonists of the antioxidant response element (ARE) signaling pathway (AID 743202); for activation: % is set by controls: 0 for no effect and ±100 for the full control effect
# test_settings: HepG2 ARE-bla reporter, beta-lactamase FRET, 16 h; series mostly up to 73.3 µM
Results filed as inconclusive are left out. Activity calls are given as the source filed them. Calls follow the shape of the dose curve; as a rule, active = well fitted activation curve with a large enough effect in the signal ratio in the repeat runs (not every such curve was filed as active); inconclusive = weak or mixed curves, or effect the other way; inactive = no such curve, though single readings can be large or run the other way; the % refers to the signal ratio.
Returns: one label drawn from label 1 = active, label 0 = inactive

NC=O :: label 0

Hello, I am checking results. What call was entered for COC(C)COC(C)COC(C)CO (stereo not drawn) ?
label 0

Hello, I am checking results. What call was entered for CC(=O)Oc1ccccc1C(=O)Nc1ncc([N+](=O)[O-])s1 ?
label 0

Hello, I am checking results. What call was entered for C[C@]12CCC(=O)C=C1CC[C@@H]1[C@@H]2C(=O)C[C@@]2(C)[C@H]1CC[C@]2(O)C(=O)CO ?
label 0

Hello, I am checking results. What call was entered for CCCCOCCOCCOCCO ?
label 0

Hello, I am checking results. What call was entered for c1ccncc1 ?
label 0

Hello, I am checking results. What call was entered for CCCCOCCOCCO ?
label 0

Hello, I am checking results. What call was entered for Nc1ccccc1N ?
label 1
